assay: physchem; conditions: pH 3.4, Solubility Conc.
Positions of bridges follow the written chain, without caps; N, C: chain ends. Non-standard residues stand in square brackets, D forms with d. Residues, ends and D or L forms follow the SMILES beside them. Groups on a side chain read outwards from the residue. *: point of attachment. Lys(CH2CO2H)2 = N[C@@H](CCCCN(CC(=O)O)CC(=O)O)C(=O)O; C16 diacid = O=C(O)CCCCCCCCCCCCCCC(=O)*; hCys = N[C@@H](CCS)C(=O)O; AEEA = NCCOCCOCC(=O)O
TEST READOUT: solubility

Incoming: Tell me measured solubility for CC(=O)N[C@H]1CCSSC[C@@H](C(=O)N2CCC[C@H]2C(=O)N2CCC[C@H]2C(=O)N[C@@H](CO)C(=O)N[C@@H](CCC(=O)O)C(=O)N[C@@H](CCCCN(CC(=O)O)CC(=O)O)C(=O)N[C@@H](CCCCNC(=O)COCCOCCNC(=O)CCCCCCCCCCCCCCC(=O)O)C(N)=O)NC(=O)[C@H](Cc2c[nH]c3ccccc23)NC(=O)[C@H](CCCNC(=N)N)NC(=O)[C@@H](Cc2ccccc2)NC(=O)[C@H](Cc2c[nH]cn2)NC1=O [Example 70] (Ac-[hCys]H[dF]RWCPPSE[Lys(CH2CO2H)2]K([AEEA-C16 diacid])-NH2; disulfide 1-6) please.
Outgoing: 190 µM
